Target: T1, human CD38 extracellular domain (ECD), tagged (human, Avitag biotinylated (in the ELISAs))
T1 construct: also called human CD38 ED; biotinylated human CD38
Assay: SPR (Biacore T200), antibody captured on Protein A, CD38 ED as analyte, 1:1 Langmuir fit;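 also: CM5 sensor chip in HBS-P buffer at pH 7.4, antibody loaded at 5 µg/mL, responses corrected against a blank reference flow cell before fitting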
Give Kd for every item shown.
Numbers only, in nM.

binder="R5E8 IgG1 (antibody, V domains shown, chimeric rat-human IgG1) VH: EVQLQQSGPEVGRPGSSVKISCKASGYIFTDYIMHWVKQSPGQGLEWIGWIDPEYGSTDYAEKFKKKATLTADTSSSTAYIQLSSLTSEDTATYFCARVAIITTVASGGFAYWGQGTLVTVSS VL: DIVMTQGALPNPVPSGESASITCQSSESLLHSNGKTYLNWYLQRPGQSPQLLIYWMSTRAAGVSDRFSGSGSGTDFTLTISGVEAEDVGVYYCQQFLEYPPTFGSGTKLEIKR" value_unit=nM readout_value=2.9
binder="X355/02 IgG1 (antibody, V domains shown, human IgG1 from phage-derived Fab) VH: QLQLQESGPGLVKPSETLSLTCTVSGGSISSSSYYWSWIRQHPGKGLEWIGYIYYSGSTNYNPSLKSRVTISVDTLKNQISLRLTSVTAADTAVYYCARVGGAGGWPMDVWGQGTTVTVSS VL: QAVLTQPASLSASPGESARLTCTLPSDINVRYYNIYWYQQKPGSPPRYLLYYYSDSHKGQGSGVPSRFSGSKDVSTNSGILLISGLQSEDEADYYCMTWSSNGSGVFGGGTQLTVLG" value_unit=nM readout_value=7.6
binder="R5D1 IgG1 (antibody, V domains shown, chimeric rat-human IgG1) VH: EVQLQQSGPEVGRPGSSVKISCKASGYTFTDYIMHWVKQSPGQGLEWIGWIDPEYGRTDYAEKFKKKATLTADTSSSTAYIQLSSLASEDTATYFCARSAHTTGFGFAYWGQGTLVTVSS VL: DIQMTQSPASLSASLGETVTIECRASEDIYSNLAWYQQKPGNSPQLLIYDANSLADGVPSRFSASGSGTQFSLKINSLRSEDVASYFCQQYNNYPYTFGAGTKLELKR" value_unit=nM readout_value=1

Would you kindly look at the next entry?
Incoming: Respond only with Kd recorded for R10A2 IgG1 (antibody, V domains shown, chimeric rat-human IgG1) VH: EVQLQQSGPEVGRPGSSVKISCKASGYTFTDSVMNWVKQSPGQGLEWIGWIDPEYGRTDVAEKFKKKATLTADSSSSTAYIYLSGLTSEDTATYFCARTKYNSGYGFPYWGQGSLVTVSS VL: DIVMTQSPTSISISVGERVTMNCKASQNVDSDVDWYQQKTGQSPKLLIYKASNRYTGVPDRFTGSGSGTDFTFTISNMQAEDLAVYYCMQSNTHPRTFGGGTKLELKR
Outgoing: 0.7
